target: N-terminal HiBiT tagged BCL6 (Homo sapiens, UniProt P41182); construct: expressed in transfected cells; host or cells: HT1080 (ATCC CCL-121), stably transduced with lentivirus pLV-UBC-N-HiBiT-BCL6-PGK-puro; experiment: HiBiT based degradation assay; type: cell-based; details: HT1080 cells expressing N-terminal HiBiT tagged BCL6; 5 hours of incubation; four-parameter logistic model; read-out: EC50 (5 hr)
OUTCOME MEASURE: DC50

Example cases with answers are listed next.
Value lookup for DC50; key = CNC(=O)COc1cc2cc(Nc3cc(N4CCC(CN5CCN(c6cccc7c(C8CCC(=O)NC8=O)nn(C)c67)CC5)CC4)ncc3Cl)cnc2n(C(C)C)c1=O (stereo not drawn)
10 to 100 nM

Given the compound CNC(=O)COc1cc2cc(Nc3nc(N4CCN(CC5CCN(c6cccc7c(C8CCC(=O)NC8=O)nn(C)c67)CC5(F)F)CC4)ncc3Cl)cnc2n(C(C)C)c1=O (stereo not drawn) , what is its reported DC50?
10 to 100 nM

Now, please, on to the next compound.
Record request: DC50 value, item CNC(=O)COc1cc2cc(Nc3nc(N4CC5(CC(Nc6ccc7c(C8CCC(=O)NC8=O)nn(C)c7c6)C5)C4)ncc3Cl)cnc2n(C(C)C)c1=O (stereo not drawn)
< 10 nM

====

target: N-terminal HiBiT tagged BCL6 (Homo sapiens); construct: expressed in transfected cells; host or cells: HT1080 (ATCC CCL-121), stably transduced with lentivirus pLV-UBC-N-HiBiT-BCL6-PGK-puro; experiment: HiBiT based degradation assay; type: cell-based; conditions: HT1080 cells expressing N-terminal HiBiT tagged BCL6; 5 hours of incubation; BCL6 degradation normalized with DMSO control
OUTCOME MEASURE: Ymin (5 hr)

Recorded results for 8 compounds are shown here.
Could you share which Ymin (5 hr) value was measured for CNC(=O)COc1cc2cc(Nc3nc(N4CCC([C@](C)(O)C5CCN(c6ccc7c(C8CCC(=O)NC8=O)nn(C)c7c6)CC5)CC4)ncc3Cl)cnc2n(C(C)C)c1=O (single isomer, unassigned) [Compound 201b] ?
+++ (30% ≤ Ymin < 50%)

What value of Ymin (5 hr) has been reported for the following compound? CNC(=O)COc1cc2cc(Nc3nc(N4CCN(CC5CCN(c6cccc7c(C8CCC(=O)NC8=O)nn(C)c67)CC5)[C@@H](C)C4)ncc3Cl)cnc2n(C(C)C)c1=O (some centres unmarked) [Compound 105a]
++++ (Ymin < 30%)

Could you tell me which Ymin (5 hr) is on file for CNC(=O)COc1cc2cc(Nc3nc(N4CCN(CC5CCN(c6cccc7c(C8CCC(=O)NC8=O)nn(C)c67)CC5)CC4)ncc3Cl)cnc2n(C2CC2)c1=O (centres unmarked) ?
++++ (Ymin < 30%)

What Ymin (5 hr) value was documented for this compound, CNC(=O)COc1cc2cc(Nc3nc(N4CC5(CCC(Oc6ccc7c(C8CCC(=O)NC8=O)nn(C)c7c6)CC5)C4)ncc3Cl)cnc2n(C)c1=O (centres unmarked) ?
++++ (Ymin < 30%)

Fill in the blank: the reported Ymin (5 hr) of CNC(=O)COc1cc2cc(Nc3nc(N4CCC(CN5C6CC5CN(c5cccc7c(C8CCC(=O)NC8=O)nn(C)c57)C6)CC4)ncc3Cl)cnc2n(C(C)C)c1=O (centres unmarked) is ____.
+++ (30% ≤ Ymin < 50%)

Which Ymin (5 hr) is reported for this compound? CNC(=O)COc1cc2cc(Nc3nc(N4CCN(CC5CCN(c6cccc7c(C8CCC(=O)NC8=O)nn(C)c67)CC5)C[C@H]4CO)ncc3Cl)cnc2n(C(C)C)c1=O (some centres unmarked) [Compound 155a]
+++ (30% ≤ Ymin < 50%)

# Ymin (5 hr) lookup, item CNC(=O)COc1cc2cc(Nc3nc(NC4CCC5(CC4)CN(c4ccc6c(C7CCC(=O)NC7=O)nn(C)c6c4)C5)ncc3Cl)cnc2n(C(C)C)c1=O (centres unmarked)
++++ (Ymin < 30%)

What value of Ymin (5 hr) has been recorded for this entry: CNC(=O)COc1cc2cc(Nc3nc(N4CCC(CN5CCN(c6ccc7c(C8CCC(=O)NC8=O)nn(C)c7c6)CC5(C)C)CC4)ncc3Cl)cnc2n(C(C)C)c1=O (centres unmarked)
+++ (30% ≤ Ymin < 50%)

Others:
// Ymin (5 hr) lookup, key: CNC(=O)COc1cc2cc(Nc3nc(N4CCC([C@](C)(O)C5CCN(c6cccc7c(C8CCC(=O)NC8=O)nn(C)c67)CC5)CC4)ncc3Cl)cnc2n(C(C)C)c1=O (stereo in doubt) [Compound 194b]
+++ (30% ≤ Ymin < 50%)

Item CNC(=O)COc1cc2cc(Nc3nc(N4CC5(CC[C@H](Nc6ccc7c(C8CCC(=O)NC8=O)nn(C)c7c6)[C@H](C)C5)C4)ncc3Cl)cnc2n(C)c1=O (relative stereo) [Compound 156b] has what recorded Ymin (5 hr)?
++++ (Ymin < 30%)

====

target: N-terminal HiBiT tagged BCL6 (Homo sapiens, UniProt P41182); construct: expressed in transfected cells; host or cells: HT1080 (ATCC CCL-121), stably transduced with lentivirus pLV-UBC-N-HiBiT-BCL6-PGK-puro; assay: HiBiT based degradation assay; type: cell-based; conditions: HT1080 cells expressing N-terminal HiBiT tagged BCL6; 5 hours of incubation; BCL6 degradation normalized with DMSO control
OUTCOME MEASURE: Ymin (5 hr)

Request: Ymin (5 hr), test system N-terminal HiBiT tagged BCL6 (Homo sapiens, UniProt P41182), entry CNC(=O)COc1cc2cc(Nc3nc(N4CCN(CC5CCN(c6cccc7c(C8CCC(=O)NC8=O)nn(C)c67)CC5)CC4)ncc3Cl)cnc2n(C)c1=O (centres unmarked)
++++ (Ymin < 30%)

Please tell me: Ymin (5 hr) of CNC(=O)COc1cc2cc(Nc3nc(N4CC5(CC[C@@H](Oc6ccc7c(C8CCC(=O)NC8=O)nn(C)c7c6)[C@H](C)C5)C4)ncc3Cl)cnc2n(C(C)C)c1=O (relative stereo) [Compound 185d] , system N-terminal HiBiT tagged BCL6 (Homo sapiens, UniProt P41182)?
++++ (Ymin < 30%)

GET /values?readout=Ymin (5 hr)&system=N-terminal HiBiT tagged BCL6 (Homo sapiens, UniProt P41182)&item= CNC(=O)COc1cc2cc(Nc3nc(N4CC[C@@H](CN5CCN(c6cccc7c(C8CCC(=O)NC8=O)nn(C)c67)CC5)[C@H](C)C4)ncc3Cl)cnc2n(C(C)C)c1=O (some centres unmarked) [Compound 177c]
+++ (30% ≤ Ymin < 50%)

Query the reported Ymin (5 hr) for N-terminal HiBiT tagged BCL6 (Homo sapiens, UniProt P41182); item: CNC(=O)COc1cc2cc(Nc3nc(N4CC5(CC(Oc6ccc7c(C8CCC(=O)NC8=O)nn(C)c7c6)C5)C4)ncc3Cl)cnc2n(C(C)C)c1=O (centres unmarked)
++++ (Ymin < 30%)

N-terminal HiBiT tagged BCL6 (Homo sapiens, UniProt P41182) / Ymin (5 hr) / CNC(=O)COc1cc2cc(Nc3nc(N4CC[C@H](CN5CCN(c6cccc7c(C8CCC(=O)NC8=O)nn(C)c67)CC5)[C@@H](F)C4)ncc3Cl)cnc2n(C(C)C)c1=O (relative stereo) [Compound 238b] : value?
++++ (Ymin < 30%)

Others:
Identify the measured Ymin (5 hr) of CNC(=O)COc1cc2cc(Nc3nc(N4CCN(CC5CCN(c6cccc7c(C8CCC(=O)NC8=O)nn(C)c67)CC5)CC4)ncc3Cl)cnc2n(CCOC)c1=O (centres unmarked) for N-terminal HiBiT tagged BCL6 (Homo sapiens, UniProt P41182).
++++ (Ymin < 30%)

Query the reported Ymin (5 hr) for N-terminal HiBiT tagged BCL6 (Homo sapiens, UniProt P41182); item: CNC(=O)COc1cc2cc(Nc3nc(N4CC[C@@H](CNc5cccc6c(C7CCC(=O)NC7=O)nn(C)c56)C4)ncc3Cl)cnc2n(C)c1=O (some centres unmarked) [Compound 122b]
+++ (30% ≤ Ymin < 50%)

Lab note: need Ymin (5 hr) with N-terminal HiBiT tagged BCL6 (Homo sapiens, UniProt P41182) for entry CNC(=O)COc1cc2cc(Nc3nc(N4CCN(CC5CCN(c6cccc7c(C8CCC(=O)NC8=O)nn(C)c67)CC5)CC4)ncc3Cl)cnc2n(CC2CC2)c1=O (centres unmarked) , please look it up.
++++ (Ymin < 30%)

Please tell me: Ymin (5 hr) of CNC(=O)COc1cc2cc(Nc3nc(N4CCC(CN5CCN(c6cccc7c(C8CCC(=O)NC8=O)nn(C)c67)C[C@H]5C)CC4)ncc3F)cnc2n(C(C)C)c1=O (some centres unmarked) [Compound 188a] , system N-terminal HiBiT tagged BCL6 (Homo sapiens, UniProt P41182)?
+++ (30% ≤ Ymin < 50%)

// fetch N-terminal HiBiT tagged BCL6 (Homo sapiens, UniProt P41182) Ymin (5 hr) for CNC(=O)COc1cc2cc(Nc3nc(N4CCN(CC5CCN(c6ccc7c(C8CCC(=O)NC8=O)nn(C)c7c6)CC5)C[C@@H]4CO)ncc3Cl)cnc2n(C(C)C)c1=O (some centres unmarked) [Compound 151a]
+++ (30% ≤ Ymin < 50%)
